A collection of compounds and their measured growth
System: K-562 leukemia
Assay: NCI-60 one-dose screen, 48 h (100 = growth as untreated, 0 = no growth, -100 = all killed)
Conditions: 10 µM unless noted
About 83,000 compounds went through this panel and 20% of them were active in at least one assay; those are over-represented in the sample as a whole.
Value expressed in %; do not type the unit.

COMPOUND: O=C(Nc1cccc2ccccc12)c1cc2c(cc1Br)OCO2
growth / %: 97.8

COMPOUND: CC/C(=C\c1ccc(N(C)C)cc1)c1ccncc1
growth / %: 16.2

growth reading for Cc1cc(NC(=O)Nc2cccc3ccccc23)no1 : 92.4

growth reading for C=C(C[C@](O)(C(=O)/C=C/c1ccc(Cl)cc1)C(=O)OC)c1ccccc1 : 50.7

growth reading for CC[C@@H]1OC(=O)[C@H](C)[C@@H](O[C@H]2C[C@@](C)(OC)[C@@H](O)[C@H](C)O2)[C@H](C)[C@@H](O[C@@H]2O[C@H](C)C[C@H](N(C)C)[C@H]2O)[C@](C)(O)C[C@@H](C)[C@@H]2N[C@@H](COCCOC)O[C@H]([C@H]2C)[C@]1(C)O : 103

growth reading for O=C(Nc1ccc(OCc2nnc(-c3ccccc3)o2)c(F)c1)Nc1ccc(Cl)c(C(F)(F)F)c1 : 12.9

growth reading for COc1ccc(Nc2ccnc(NCCCNc3ccnc4cc(Cl)ccc34)n2)cc1 : -19.2

---

Test system: SK-OV-3 ovarian
Assay: NCI-60 one-dose screen, 48 h
Conditions: 10 µM unless noted
Procedure: Growth inhibition of the SK-OV-3 human tumor cell line is measured as a screen for anti-cancer activity. Cells are grown in 96 well plates and exposed to the test compound for 48 hours. Compounds are tested at a single concentration, which is 10^-5 M for most compounds. The reported endpoint is percent growth (GI% or GIPRCNT), where numbers from 0 - 100% represent growth inhibition, and numbers from -100% - 0 represent cell death. For example, a value of 40 represents 60% growth inhibition. […]
About 83,000 compounds went through this panel and 20% of them were active in at least one assay; those are over-represented in the sample as a whole. Active and inactive are the calls of the source. The calls were made as follows: active = growth percent below 10; inactive = the rest.
Output constraint: value belongs to active, inactive

Record excerpt, results attached:
COMPOUND: Cc1ccc(NC(=O)COC(=O)c2ccc(S(=O)(=O)N3CCCCCC3)cc2)cc1
MEASURED_TARGET: SK-OV-3 ovarian
CLASS_NAME: inactive
--
COMPOUND: Cc1c(C(N)=O)sc2c1c(=O)n(Cc1ccccc1)c1nnc(S(=O)(=O)CC(=O)Nc3ccc(Cl)cc3)n21
MEASURED_TARGET: SK-OV-3 ovarian
CLASS_NAME: inactive

Input line: # fetch the recorded call for CN1CCN(CC(=O)Nc2nc3c(s2)Nc2cc(Cl)c(Cl)cc2NC3=O)CC1 here
Output line: inactive

Input line: # fetch the recorded call for C[C@@H]1CC[C@H]2[C@@H](C)C(O)O[C@@H]3O[C@]4(C)CC[C@@H]1[C@]32OO4 (some centres undefined) here
Output line: inactive

Input line: # fetch the recorded call for CC(c1cc(Cl)ccc1O)c1cc(Cl)ccc1O here
Output line: inactive

Input line: # fetch the recorded call for C/C(=N\N1CC(=O)NC1=O)c1ccc([N+](=O)[O-])o1 here
Output line: inactive

Input line: # fetch the recorded call for CC/C=C\C=C/C(=O)N/C=C/CC1Cc2cccc(O)c2C(=O)O1 (centres undefined) here
Output line: inactive

Input line: # fetch the recorded call for Cc1cc(C)c2c(c1)N1OC(C2)C[C@H]1/C=C/c1ccccc1 (some centres undefined) here
Output line: inactive

Input line: # fetch the recorded call for COc1ccc(-c2csc(NC(=O)c3cc(O)c(O)c(O)c3)n2)cc1 here
Output line: inactive

Input line: # fetch the recorded call for CCC(O)C(C)(C)C (centres undefined) here
Output line: inactive

---

System: COLO 205 colon
Assay: NCI-60 one-dose screen, 48 h
Conditions: 10 µM unless noted
About 83,000 compounds went through this panel and 20% of them were active in at least one assay; those are over-represented in the sample as a whole. The source made the active and inactive calls. Rule for the calls: active = growth percent below 10; inactive = the rest.
Output constraint: value belongs to true (1) for active, false (0) for inactive

COMPOUND: O=C(Nc1ncc([N+](=O)[O-])s1)c1cccc([N+](=O)[O-])c1
CLASS_NAME: false (0)
//
COMPOUND: C[C@]12CC[C@@H]3c4ccc(O)c([N+](=O)[O-])c4CC[C@H]3[C@@H]1CC[C@@H]2NS(=O)(=O)c1cccc(Br)c1
CLASS_NAME: false (0)
//
COMPOUND: O=C(/C=C/c1cc2ccccc2[nH]c1=O)c1ccc(Cl)cc1
CLASS_NAME: false (0)
//
COMPOUND: c1cncc(CNc2ccccc2-c2nnc(Nc3ccc4c(c3)OCO4)o2)c1
CLASS_NAME: true (1)
//
COMPOUND: Nc1ccc(C2=Nc3cccc4cccc(c34)S2)cc1
CLASS_NAME: false (0)
//
COMPOUND: N#Cc1ccc(NC(=O)Nc2ccc(Oc3ccc(NC(=O)Nc4ccc(C#N)cc4)cc3)cc2)cc1
CLASS_NAME: true (1)
//
COMPOUND: COc1ccc2c(c1)C(=O)c1c-2c(=O)n(CCCCCCC(=O)NO)c2ccccc12
CLASS_NAME: true (1)
//
COMPOUND: O=C(CSCC(=O)N/N=C/c1ccccc1O)N/N=C\c1ccccc1O
CLASS_NAME: false (0)

Input line: # fetch the recorded call for O=C(O)c1ccc(NC(=O)c2cccc(Nc3ccnc(C(F)(F)F)c3)c2)cc1 here
Output line: false (0)

Input line: # fetch the recorded call for CCN(CC)c1ccc(N=Nc2cc(Cl)ccc2Cl)c(NC(=O)CCC(=O)O)c1 here
Output line: false (0)

Input line: # fetch the recorded call for COc1ccc(C2CC(c3cccc(Nc4ccnc5cc(Cl)ccc45)c3)=NN2C=O)cc1 (stereo unspecified) here
Output line: true (1)

Input line: # fetch the recorded call for CC(=O)Oc1c(C)c(OC(C)=O)c2c(c1C(C)=O)OC1CC(=O)C(C(C)=O)=C(O)C21C (stereo unspecified) here
Output line: false (0)

Input line: # fetch the recorded call for COc1ccc(-c2cnnn2-c2cc(OC)c3c(c2)OCO3)cc1 here
Output line: true (1)

Input line: # fetch the recorded call for Cc1ccc2c(c1)C(=O)/C(=C/c1ncc([N+](=O)[O-])n1C)O2 here
Output line: true (1)

Input line: # fetch the recorded call for CC(=O)Nc1ccc2c(c1)Cc1c(F)c(F)c(F)c(F)c1-2 here
Output line: false (0)

Input line: # fetch the recorded call for COc1ncc(-c2ccc3nccc(C#CCN4CCN(S(C)(=O)=O)CC4)c3c2)cc1NS(=O)(=O)c1ccc(F)cc1F here
Output line: true (1)

---

System: A549/ATCC NSCLC
Assay: NCI-60 one-dose screen, 48 h
Details: 10 µM unless noted
About 83,000 compounds went through this panel and 20% of them were active in at least one assay; those are over-represented in the sample as a whole. The source made the active and inactive calls. How the source made its calls: active means growth percent below 10; inactive means the rest.
Output constraint: value belongs to 1 = active, 0 = inactive

COMPOUND: CC(C)(C)c1ccc(C(O)CCCN2CCC(C(O)(c3ccccc3)c3ccccc3)CC2)cc1 (stereo not given)
MEASURED_TARGET: A549/ATCC NSCLC
CLASS_NAME: 1

COMPOUND: Cc1cc(C(=O)O)c(C)cc1C(=O)O
MEASURED_TARGET: A549/ATCC NSCLC
CLASS_NAME: 0

COMPOUND: O=C1Nc2ccccc2C12Nc1cc(Cl)ccc1S2 (stereo not given)
MEASURED_TARGET: A549/ATCC NSCLC
CLASS_NAME: 0

COMPOUND: Cc1nc2cc(NC(=O)CN3CCN(CCN4C(=O)c5cccc6cccc(c56)C4=O)CC3)ccc2s1
MEASURED_TARGET: A549/ATCC NSCLC
CLASS_NAME: 0

COMPOUND: CCN1C[C@@H](C)n2c(c(O)c3c(=O)n(Cc4ccc(F)c(Cl)c4)nc(C(=O)NC)c32)C1=O
MEASURED_TARGET: A549/ATCC NSCLC
CLASS_NAME: 0

Kindly consider the entry below.
Input line: # fetch the recorded call for CCC(O)C(C)(C)C (stereo not given) here
Output line: 0

---

Tested on: KM12 colon
Assay: NCI-60 one-dose screen, 48 h (100 = growth as untreated, 0 = no growth, -100 = all killed)
Conditions: 10 µM unless noted
Procedure: Growth inhibition of the KM12 human tumor cell line is measured as a screen for anti-cancer activity. Cells are grown in 96 well plates and exposed to the test compound for 48 hours. Compounds are tested at a single concentration, which is 10^-5 M for most compounds. The reported endpoint is percent growth (GI% or GIPRCNT), where numbers from 0 - 100% represent growth inhibition, and numbers from -100% - 0 represent cell death. For example, a value of 40 represents 60% growth inhibition. […]
The panel holds about 83,000 compounds, 20% with a hit somewhere; the sample as a whole holds those more often.
A collection of compounds and their measured growth
Value expressed in %; do not type the unit.

COMPOUND: O=[N+]([O-])c1ccc2c(c1)S(=O)c1cc([N+](=O)[O-])ccc1N2
growth / %: 102

growth reading for COc1ccc(-n2nc3c(c2-c2ccc(OC)c(OC)c2)-c2oncc2CC3)cc1 : 77.7

growth reading for ClC1=C(Cl)C(=C2C(Cl)=C(Cl)C(Cl)=C2Cl)C(Cl)=C1Cl : 104

growth reading for CCCCc1nc(Cl)c(CO)n1Cc1ccc(-c2ccccc2-c2nn[nH]n2)cc1 : 103

growth reading for COc1ccc(-c2c(-c3cc(OC)c(OC)c(OC)c3)noc2N)cc1 : 7.28

growth reading for CCCc1nn(C)c2c(=O)[nH]c(-c3cc(S(=O)(=O)N4CCN(C)CC4)ccc3OCC)nc12 : 103

growth reading for COc1ccc2c(c1)C(=O)c1c-2c(OCCN(C)C)nc2cc(OC)ccc12 : -37.4

growth reading for Cc1ccc(C(=O)Nc2ccc(Cl)cc2C(=O)NCc2ccccc2)cc1 : 60.5

growth reading for O=C(C(Br)Br)C(Br)C(Br)c1ccccc1 (stereo not given) : 102

growth reading for COC(=O)[C@]1(CCSC)N[C@H](c2cn(-c3ccccc3)nc2C)[C@@H]2C(=O)N(c3ccccc3)C(=O)[C@@H]21 : 107
